Assay: Solubility of compound in FASSIF at 1 mg incubated for 4 hrs by HPLC-UV analysis
Format: physicochemical
ASSAY ENDPOINT: solubility at 4 h (µg/mL)
Write the number in µg/mL without appending the unit.

Looking up O=C(Nc1nc2cc(F)c(C(F)(F)F)cc2s1)C1CC1 , I found its solubility at 4 h recorded as 51

----------
Experiment: Ratio of drug level in blood to plasma in human at 1 uM after 1 hr by LC-MS/MS analysis
Assay type: ADME, cell-free
ASSAY ENDPOINT: blood plasma ratio at 1 h, 1 µM

Looking up O=C(Nc1nc2cc(F)c(C(F)(F)F)cc2s1)C1CC1 , I found its blood plasma ratio at 1 h, 1 µM recorded as 0.8
